procedure.text: Serum gallium levels, acute arthritis studies
Type: in vivo, rat
stated.conditions: Study LATT-2, 300 mg/kg, 1% MC suspension, 14 days, pretreatment 7 days, fasted, 1 hour post-dosing
assay.metric: Mean Serum Gallium Concentration (ng/mL)
Numbers only, in ng/mL.

IN: I am curious: what Mean Serum Gallium Concentration value has been reported for Cc1occc(=O)c1[O-].Cc1occc(=O)c1[O-].Cc1occc(=O)c1[O-].[Ga+3] [gallium maltolate] ?
OUT: 2960

====

procedure.text: Serum gallium levels, acute arthritis studies
Type: in vivo, rat
stated.conditions: Study LATT-2, 300 mg/kg, 1% MC suspension, 14 days, pretreatment 1 day, fasted, 1 hour post-dosing
assay.metric: Mean Serum Gallium Concentration (ng/mL)
Numbers only, in ng/mL.

IN: Suppose we examine the molecule Cc1occc(=O)c1[O-].Cc1occc(=O)c1[O-].Cc1occc(=O)c1[O-].[Ga+3] [gallium maltolate] ; what Mean Serum Gallium Concentration value has been reported?
OUT: 3470

====

procedure.text: Serum gallium levels, acute arthritis studies
Format: in vivo, rat
stated.conditions: Study LATT-2, 100 mg/kg, 1% MC suspension, 14 days, pretreatment 1 day, fasted, 1 hour post-dosing
assay.metric: Mean Serum Gallium Concentration (ng/mL)
One number for each entry, in ng/mL.

IN: Entry Cc1occc(=O)c1[O-].Cc1occc(=O)c1[O-].Cc1occc(=O)c1[O-].[Ga+3] [gallium maltolate] has what Mean Serum Gallium Concentration?
OUT: 1350
